- test.target: T1, IL-11 (Cat. 12225-HNCE, Sino Biological Inc.) (UniProt P20809 22-199, limits assumed)
- T1 sequence (looked up): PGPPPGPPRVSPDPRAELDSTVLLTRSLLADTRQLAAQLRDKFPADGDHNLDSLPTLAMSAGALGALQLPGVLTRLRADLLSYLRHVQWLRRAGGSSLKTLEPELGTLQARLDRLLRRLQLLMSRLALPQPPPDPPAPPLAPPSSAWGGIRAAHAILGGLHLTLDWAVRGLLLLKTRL
- protocol.description: cell-based or functional assay
Categories are defined by ranges of Blocking activity (IC50), STAT3-luc reporter, namely I = under 0.1 µg/mL, II = from 0.1 µg/mL up to 0.8 µg/mL, III = 0.8 µg/mL and over

Some solved cases for reference:
{"columns": ["binder", "label.class"],
 "data": [
  ["hz8C8-VHm1-m6 + hz8C8-VLm7-m2 (antibody, human IgG1, kappa, V domains shown, human IgG1 constant regions) VH: EVQLVESGGGLVQPGGSLRLSCAASGFTFSSFGMHWVRQAPGKGLEWVAVITPGSNTIYYADTVKGRFTISRDNAKNSLYLQMNSLRAEDTAVYYCAREYYSYDEGFAYWGQGTLVTVSS VL: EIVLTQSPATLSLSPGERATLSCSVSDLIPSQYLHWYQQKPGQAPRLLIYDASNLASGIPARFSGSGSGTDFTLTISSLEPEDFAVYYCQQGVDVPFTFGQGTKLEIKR", "I"],
  ["hz8C8-VHm1 + hz8C8-VLm7-m2 (antibody, human IgG1, kappa, V domains shown, human IgG1 constant regions) VH: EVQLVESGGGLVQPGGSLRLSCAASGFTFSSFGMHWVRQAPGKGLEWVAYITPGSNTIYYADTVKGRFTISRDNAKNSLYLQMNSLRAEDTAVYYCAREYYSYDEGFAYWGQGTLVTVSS VL: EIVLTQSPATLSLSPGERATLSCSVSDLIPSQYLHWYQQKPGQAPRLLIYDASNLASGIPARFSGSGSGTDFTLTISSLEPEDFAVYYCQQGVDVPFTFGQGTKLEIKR", "I"],
  ["hz18A10-VHm14 + hz18A10-VLm19 (antibody, V domains shown, Constant regions not restated for this antibody) VH: EVQLVQSGAEVKKPGASVKVSCKASGYTFTHYQMDWVRQAPGQGLEWMGTIYPGNGDTSYNQKFKGRVTMTRDTSTSTVYMELSSLRSEDTAVYYCARGDLYALDYWGQGTLVTVSS VL: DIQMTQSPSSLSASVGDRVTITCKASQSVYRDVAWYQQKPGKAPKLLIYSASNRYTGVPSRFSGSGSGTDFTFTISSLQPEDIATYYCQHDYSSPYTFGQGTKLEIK", "III"]
]}

Shifting focus to the binder that follows.
**Q:** Tag the class for hz18A10-VHm1 + hz18A10-VLm15 (antibody, V domains shown, Constant regions not restated for this antibody) VH: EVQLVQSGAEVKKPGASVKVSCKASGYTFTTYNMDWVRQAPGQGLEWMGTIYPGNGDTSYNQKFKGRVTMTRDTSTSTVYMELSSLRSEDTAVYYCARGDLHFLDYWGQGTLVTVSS VL: DIQMTQSPSSLSASVGDRVTITCKASQSVSNDVAWYQQKPGKAPKLLIYRASSRYTGVPSRFSGSGSGTDFTFTISSLQPEDIATYYCQHDYSSPYTFGQGTKLEIK
**A:** III
